Listed molecules paired with reported NEUTROPHIL
species: Rattus norvegicus; experiment: DrugMatrix - Regimen: Daily Repeat; type: toxicity, organism-based, Sprague-Dawley; parameters: regimen Daily Repeat, gender Male, age 6-8 weeks; conditions: in vivo, po, 0 mg/kg, 120 h, tissue Blood, route oral GAVAGE, dose level Control, time 5 day, […]
measurement.type: NEUTROPHIL (%)

1. CC(=O)[C@H]1CC[C@H]2[C@@H]3CCC4=CC(=O)CC[C@]4(C)[C@H]3CC[C@]12C :: 5.5
2. CC(C)n1c(/C=C/C(O)CC(O)CC(=O)O)c(-c2ccc(F)cc2)c2ccccc21 (centres undefined) :: 9
3. CC1=C(/C=C/C(C)=C/C=C/C(C)=C\C(=O)O)C(C)(C)CCC1 :: 6.33
4. CC(C)(Oc1ccc(CCNC(=O)c2ccc(Cl)cc2)cc1)C(=O)O [BEZAFIBRATE] :: 13.88
5. C=CCN :: 12.53
6. COCc1c(C(C)C)nc(C(C)C)c(/C=C/[C@@H](O)C[C@@H](O)CC(=O)O)c1-c1ccc(F)cc1 :: 9.83
7. c1ccc2[nH]c(-c3cscn3)nc2c1 :: 5.17
8. COC1=CC(=O)C[C@@H](C)[C@]12Oc1c(Cl)c(OC)cc(OC)c1C2=O :: 14.17
9. CCCC[C@@H](CC)COC(=O)c1ccccc1C(=O)OC[C@@H](CC)CCCC [BIS(2-ETHYLHEXYL)PHTHALATE] :: 5.17

----------
species on record: Rattus norvegicus; experiment: DrugMatrix - Regimen: Daily Repeat; format: toxicity, organism-based, Sprague-Dawley; design: regimen Daily Repeat, gender Male, age 6-8 weeks; details: in vivo, ip, 0 mg/kg, […], tissue Blood, route intraperitoneal, dose level Control, time 14 day, vehicle 100 % SALINE
measurement.type: ABSOLUTE MONOCYTE (cells/µL)

1. NCC[C@H](O)C(=O)N[C@@H]1C[C@H](N)[C@@H](O[C@H]2O[C@H](CN)[C@@H](O)[C@H](O)[C@H]2O)[C@H](O)[C@H]1O[C@H]1O[C@H](CO)[C@@H](O)[C@H](N)[C@H]1O :: 400

----------
species on record: Rattus norvegicus; assay: DrugMatrix - Regimen: Daily Repeat; assay type: toxicity, organism-based, Sprague-Dawley; set-up: regimen Daily Repeat, gender Male, age 6-8 weeks; conditions: in vivo, po, 2000 mg/kg, 72 h, tissue Blood, route oral GAVAGE, dose level High, time 3 day, vehicle .5 % CMC
measurement.type: NEUTROPHIL (%)

1. CC(C)[C@H](N)C(=O)OCCOCn1cnc2c(=O)[nH]c(N)nc21 :: 10
2. CC(=O)O[C@]1(C(C)=O)CC[C@H]2[C@@H]3C=C(Cl)C4=CC(=O)CC[C@]4(C)[C@H]3CC[C@@]21C [CHLORMADINONE ACETATE] :: 7.33
3. NCC(=O)O :: 9
4. NCCCC[C@H](N[C@@H](CCc1ccccc1)C(=O)O)C(=O)N1CCC[C@H]1C(=O)O [LISINOPRIL ANHYDROUS] :: 8.67

----------
species: Rattus norvegicus; experiment: DrugMatrix - Regimen: Daily Repeat; assay type: toxicity, organism-based, Sprague-Dawley; parameters: regimen Daily Repeat, gender Male, age 6-8 weeks; settings: in vivo, po, 80 mg/kg, 2184 h, tissue Blood, route oral GAVAGE, dose level High, time 91 day, vehicle .5 % CMC
measurement.type: ABSOLUTE BASOPHIL (cells/µL)

1) O=c1cc(-c2ccccc2)oc2c1ccc1ccccc12 :: 340
